test system: Caspase3 in Hela S100; test: In-vitro caspase-3 activation assay in Hela S100 extract; format: biochemical; details: 100 nM compound, Hela S100, 1 mM dATP; slope versus control (compound 1 = Caspase std.)
property-label: Caspase % (%)

{"molecule": "CN[C@@H](C)C(=O)N[C@@H](CC#CC#CCO[C@H](C)[C@H](NC(=O)[C@H](C)NC)C(=O)N1CCCC1C(=O)N[C@@H]1CCCc2ccccc21)C(=O)N1CCCC1C(=O)N[C@@H]1CCCc2ccccc21.Cl.Cl (stereo partly drawn)", "unit-string": "%", "measured-result": 105}
{"molecule": "CN[C@@H](C)C(=O)N[C@@H](Cc1ccc(OCCCCOc2ccc(C[C@H](NC(=O)[C@H](C)NC)C(=O)N3CCCC3C(=O)N[C@@H]3CCCc4ccccc43)cc2)cc1)C(=O)N1CCCC1C(=O)N[C@@H]1CCCc2ccccc21.Cl.Cl (stereo partly drawn)", "unit-string": "%", "measured-result": 136}
{"molecule": "C=C(C#CCO[C@H](C)[C@H](NC(=O)[C@H](C)NC)C(=O)N1CCC[C@H]1C(=O)N[C@@H]1CCCc2ccccc21)CO[C@H](C)[C@H](NC(=O)[C@H](C)NC)C(=O)N1CCC[C@H]1C(=O)N[C@@H]1CCCc2ccccc21.Cl.Cl", "unit-string": "%", "measured-result": 109}
{"molecule": "CN[C@@H](C)C(=O)N[C@@H](CCCc1ccc(C[C@H](NC(=O)[C@H](C)NC)C(=O)N2CCC[C@H]2C(=O)N[C@@H]2CCCc3ccccc32)cc1)C(=O)N1CCC[C@H]1C(=O)N[C@@H]1CCCc2ccccc21.Cl.Cl", "unit-string": "%", "measured-result": 99}
{"molecule": "CN[C@@H](C)C(=O)N[C@H](C(=O)N1CCC[C@H]1C(=O)N[C@@H]1CCCc2ccccc21)[C@@H](C)OCc1nnn2c1-c1c(CO[C@H](C)[C@H](NC(=O)[C@H](C)NC)C(=O)N3CCC[C@H]3C(=O)N[C@@H]3CCCc4ccccc43)nnn1CCC2.Cl.Cl", "unit-string": "%", "measured-result": 98}
{"molecule": "CC[C@H](NC)C(=O)N[C@@H](CC#CC#CC[C@H](NC(=O)[C@H](CC)NC)C(=O)N1CCC[C@H]1C(=O)N[C@@H]1CCCc2ccccc21)C(=O)N1CCC[C@H]1C(=O)N[C@@H]1CCCc2ccccc21", "unit-string": "%", "measured-result": 108}
{"molecule": "CN[C@@H](C)C(=O)N[C@H](C(=O)N1CCCC1)c1ccc(C#CCO[C@H](C)[C@H](NC(=O)[C@H](C)NC)C(=O)N2CCC[C@H]2C(=O)N[C@@H]2CCCc3ccccc32)cc1.Cl.Cl", "unit-string": "%", "measured-result": 85}
{"molecule": "CN[C@@H](C)C(=O)N[C@@H](CCCCNC(=O)c1ccc(C(=O)NCCCC[C@H](NC(=O)[C@H](C)NC)C(=O)N2CCC[C@H]2C(=O)N[C@@H]2CCCc3ccccc32)cc1)C(=O)N1CCC[C@H]1C(=O)N[C@@H]1CCCc2ccccc21.Cl.Cl", "unit-string": "%", "measured-result": 113}
{"molecule": "CN[C@@H](C)C(=O)N[C@@H](CCCc1ccc([C@H](NC(=O)[C@H](C)NC)C(=O)N2CCC[C@H]2C(=O)N[C@@H]2CCCc3ccccc32)cc1)C(=O)N1CCC[C@H]1C(=O)N[C@@H]1CCCc2ccccc21.Cl.Cl", "unit-string": "%", "measured-result": 102}
